target: UniProt:P08912; assay: Positive allosteric modulation of human muscarinic M5 receptor expressed in CHO-K1 cells assessed as leftward shift in acetylcholine response treated for 144 secs prior to acetylcholine addition measured for 5 mins by Fluo-4-AM based calcium mobilization assay; type: functional, cell-based
Sequence (P08912 whole entry): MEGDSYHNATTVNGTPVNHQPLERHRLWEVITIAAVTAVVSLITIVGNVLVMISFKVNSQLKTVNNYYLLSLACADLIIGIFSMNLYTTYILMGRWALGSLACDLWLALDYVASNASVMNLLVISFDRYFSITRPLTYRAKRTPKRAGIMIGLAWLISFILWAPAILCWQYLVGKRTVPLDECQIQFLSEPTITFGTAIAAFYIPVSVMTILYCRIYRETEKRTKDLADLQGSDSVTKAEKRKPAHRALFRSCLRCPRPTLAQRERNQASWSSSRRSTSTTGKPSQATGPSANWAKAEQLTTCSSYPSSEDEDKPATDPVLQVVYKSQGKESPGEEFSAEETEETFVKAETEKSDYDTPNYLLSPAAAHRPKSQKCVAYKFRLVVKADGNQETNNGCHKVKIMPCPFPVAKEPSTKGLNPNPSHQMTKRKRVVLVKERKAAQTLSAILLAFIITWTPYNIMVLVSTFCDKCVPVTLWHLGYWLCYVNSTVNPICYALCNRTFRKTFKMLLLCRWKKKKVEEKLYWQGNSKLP
metric.name: EC50

[
  {
    "structure.notation": "Cc1nc2sc(C(=O)NCc3ccncc3)c(N)c2c(C)c1Cl",
    "system.name": "UniProt:P08912",
    "metric.name": "EC50",
    "readout.value": "> 30 µM"
  }
]

Then there is this compound:
Record Cc1nc2sc(C(=O)NC3CC3)c(N)c2c(C)c1Cl / UniProt:P08912, EC50 recorded as > 30 µM

###

molecular target: Muscarinic acetylcholine receptor M2 (Rattus norvegicus); test: Positive allosteric modulation of rat muscarinic M2 receptor assessed as acetylcholine response
Sequence (P10980 whole entry): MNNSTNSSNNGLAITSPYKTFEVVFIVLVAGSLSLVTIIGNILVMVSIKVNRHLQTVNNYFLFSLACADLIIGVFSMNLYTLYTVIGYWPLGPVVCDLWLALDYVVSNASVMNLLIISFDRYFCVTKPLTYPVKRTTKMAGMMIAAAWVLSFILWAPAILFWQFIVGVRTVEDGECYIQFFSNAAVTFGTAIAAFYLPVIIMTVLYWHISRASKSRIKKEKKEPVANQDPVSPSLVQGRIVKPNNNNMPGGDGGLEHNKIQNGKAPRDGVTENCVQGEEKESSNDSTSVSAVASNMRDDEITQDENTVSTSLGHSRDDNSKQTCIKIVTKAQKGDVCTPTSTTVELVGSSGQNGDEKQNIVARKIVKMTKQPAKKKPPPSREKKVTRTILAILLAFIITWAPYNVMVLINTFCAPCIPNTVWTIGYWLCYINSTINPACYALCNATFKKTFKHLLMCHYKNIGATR
metric.name: EC50 (µM)
One number for each entry, in µM.

Record Cc1nc2sc(C(=O)NC3CC3)c(N)c2c(C)c1Cl / Muscarinic acetylcholine receptor M2 (Rattus norvegicus), EC50 recorded as 0.64

###

Molecular target: Muscarinic acetylcholine receptor M4 (Homo sapiens) (UniProt P08173)
Sequence (whole entry): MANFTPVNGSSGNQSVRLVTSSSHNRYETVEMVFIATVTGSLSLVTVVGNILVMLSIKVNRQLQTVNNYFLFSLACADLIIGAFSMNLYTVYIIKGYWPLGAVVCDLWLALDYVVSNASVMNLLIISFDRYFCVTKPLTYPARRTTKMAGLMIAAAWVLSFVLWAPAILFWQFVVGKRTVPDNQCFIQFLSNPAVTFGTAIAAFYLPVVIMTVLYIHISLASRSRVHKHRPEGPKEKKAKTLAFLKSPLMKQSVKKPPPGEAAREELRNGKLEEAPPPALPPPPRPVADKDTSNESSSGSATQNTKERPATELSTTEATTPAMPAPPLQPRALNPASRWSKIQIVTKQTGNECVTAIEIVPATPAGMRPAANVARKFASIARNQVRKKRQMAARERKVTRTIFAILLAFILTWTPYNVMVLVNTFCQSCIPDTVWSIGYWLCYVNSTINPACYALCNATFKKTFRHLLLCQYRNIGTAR
Assay: Positive allosteric modulation of human muscarinic M4 receptor expressed in CHO-K1 cells assessed as leftward shift in acetylcholine response treated for 144 secs prior to acetylcholine addition measured for 5 mins by Fluo-4-AM based calcium mobilization assay relative to control
Type: functional, cell-based
For each record, write down the corresponding %max.
Numbers only, in %.

Known %max results, listed for orientation:
[
  {
    "structure.notation": "Cc1nc2sc(C(=O)NCCc3ccncc3)c(N)c2c(C)c1Cl",
    "readout.value": 74.5
  },
  {
    "structure.notation": "Cc1nc2sc(C(=O)NCc3ccnnc3)c(N)c2c(C)c1Cl",
    "readout.value": 74.5
  },
  {
    "structure.notation": "COc1ccc(NC(=O)c2sc3nc(C)c(Cl)c(C)c3c2N)cc1",
    "readout.value": 30.7
  }
]

Given item Cc1nc2sc(C(=O)NCc3cccc(F)c3F)c(N)c2c(C)c1Cl , the value recorded as its %max is 79.5

###

Biological target: Muscarinic acetylcholine receptor M4 (Homo sapiens)
Sequence (P08173 whole entry): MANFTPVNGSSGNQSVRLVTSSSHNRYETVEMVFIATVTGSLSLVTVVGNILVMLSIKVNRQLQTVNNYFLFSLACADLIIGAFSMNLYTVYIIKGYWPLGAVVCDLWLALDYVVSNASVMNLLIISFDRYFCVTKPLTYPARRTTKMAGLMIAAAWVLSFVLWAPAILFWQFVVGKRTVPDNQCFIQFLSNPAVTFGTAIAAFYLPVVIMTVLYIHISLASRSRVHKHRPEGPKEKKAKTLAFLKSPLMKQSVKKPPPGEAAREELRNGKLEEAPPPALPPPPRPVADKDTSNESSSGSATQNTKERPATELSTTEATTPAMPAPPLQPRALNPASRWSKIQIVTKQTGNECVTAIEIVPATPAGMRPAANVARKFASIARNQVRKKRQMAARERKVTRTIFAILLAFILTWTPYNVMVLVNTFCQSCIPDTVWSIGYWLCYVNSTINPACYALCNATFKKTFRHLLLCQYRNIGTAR
Experiment: Positive allosteric modulation of human muscarinic M4 receptor expressed in CHO-K1 cells assessed as leftward shift in acetylcholine response treated for 144 secs prior to acetylcholine addition measured for 5 mins by Fluo-4-AM based calcium mobilization assay
Assay type: functional, cell-based
Conditions: read-out: EC50
For each record, write down the corresponding pEC50.
Answers are plain numbers, as −log10 of the molar value.

Known pEC50 results, listed for orientation:
[
  {
    "compound": "Cc1cc(OCc2ccncc2)nc2sc(C(=O)NCc3cccc(F)c3F)c(N)c12",
    "pEC50": 6.30
  },
  {
    "compound": "Cc1ccc(CNC(=O)c2sc3nc(C)c(Cl)c(C)c3c2N)cc1",
    "pEC50": 6.98
  },
  {
    "compound": "Cc1nc2sc(C(=O)NCc3ccncc3)c(N)c2c(C)c1Cl",
    "pEC50": 7.25
  },
  {
    "compound": "Cc1nc2sc(C(=O)NCc3ccc(C(F)(F)F)cc3)c(N)c2c(C)c1Cl",
    "pEC50": 5.76
  },
  {
    "compound": "Cc1nc2sc(C(=O)NCc3cnccn3)c(N)c2c(C)c1Cl",
    "pEC50": 6.53
  },
  {
    "compound": "Cc1nc2sc(C(=O)NCc3cccc(F)c3F)c(N)c2c(C)c1Cl",
    "pEC50": 6.91
  },
  {
    "compound": "Cc1cc(CNC(=O)c2sc3nc(C)c(Cl)c(C)c3c2N)ccn1",
    "pEC50": 7.21
  },
  {
    "compound": "Cc1nc2sc(C(=O)NCc3ccccc3Cl)c(N)c2c(C)c1Cl",
    "pEC50": 6.80
  },
  {
    "compound": "Cc1nc2sc(C(=O)NC3CCOCC3)c(N)c2c(C)c1Cl",
    "pEC50": 6.54
  },
  {
    "compound": "COCCCNC(=O)c1sc2nc(C)c(Cl)c(C)c2c1N",
    "pEC50": 6.38
  }
]

Batch lookup, pEC50 per entry.
1. Cc1nc2sc(C(=O)NCc3ccccn3)c(N)c2c(C)c1Cl
2. Cc1nc2sc(C(=O)NCc3ccncn3)c(N)c2c(C)c1Cl
3. Cc1nc2sc(C(=O)NCCc3ccccn3)c(N)c2c(C)c1Cl
4. Cc1nc2sc(C(=O)NC(C)(C)C)c(N)c2c(C)c1Cl

Solution:
1. 6.45
2. 6.57
3. 6.07
4. 6.51

###

Target: UniProtKB P11229
Sequence (P11229 whole entry): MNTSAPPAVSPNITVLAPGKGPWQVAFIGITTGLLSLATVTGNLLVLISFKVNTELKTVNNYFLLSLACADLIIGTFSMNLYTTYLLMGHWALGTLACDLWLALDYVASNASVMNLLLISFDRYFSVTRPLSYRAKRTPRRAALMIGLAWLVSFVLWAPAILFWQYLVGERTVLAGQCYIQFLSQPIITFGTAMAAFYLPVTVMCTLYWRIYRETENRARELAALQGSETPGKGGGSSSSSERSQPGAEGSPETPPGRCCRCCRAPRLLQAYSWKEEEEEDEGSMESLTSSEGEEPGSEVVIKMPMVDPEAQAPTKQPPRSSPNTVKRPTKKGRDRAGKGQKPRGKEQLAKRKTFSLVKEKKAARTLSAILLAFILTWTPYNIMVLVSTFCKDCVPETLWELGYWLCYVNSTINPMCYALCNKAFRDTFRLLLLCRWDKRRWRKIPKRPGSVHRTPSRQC
Assay: Positive allosteric modulation of human muscarinic M1 receptor expressed in CHO-K1 cells assessed as leftward shift in acetylcholine response treated for 144 secs prior to acetylcholine addition measured for 5 mins by Fluo-4-AM based calcium mobilization assay
metric.name: EC50 (nM)
Answers are plain numbers, in nM.

Given item Cc1nc2sc(C(=O)NC3CC3)c(N)c2c(C)c1Cl , the value recorded as its EC50 is 970

###

Biological target: Muscarinic acetylcholine receptor M4 (Homo sapiens, UniProt P08173)
Sequence (P08173 whole entry): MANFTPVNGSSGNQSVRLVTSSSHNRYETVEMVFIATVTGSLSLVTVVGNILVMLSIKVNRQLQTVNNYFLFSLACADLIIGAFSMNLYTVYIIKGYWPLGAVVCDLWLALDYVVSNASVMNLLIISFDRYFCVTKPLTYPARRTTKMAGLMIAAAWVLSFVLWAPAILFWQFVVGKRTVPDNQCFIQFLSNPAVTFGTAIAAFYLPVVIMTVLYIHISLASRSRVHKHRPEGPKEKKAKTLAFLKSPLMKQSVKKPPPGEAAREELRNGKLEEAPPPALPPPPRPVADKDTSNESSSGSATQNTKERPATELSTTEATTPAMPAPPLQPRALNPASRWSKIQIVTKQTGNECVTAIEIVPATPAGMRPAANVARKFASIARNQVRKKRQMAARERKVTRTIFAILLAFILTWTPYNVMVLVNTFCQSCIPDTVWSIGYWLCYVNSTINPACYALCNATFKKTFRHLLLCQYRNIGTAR
Assay: Positive allosteric modulation of human muscarinic M4 receptor expressed in CHO-K1 cells assessed as leftward shift in acetylcholine response treated for 144 secs prior to acetylcholine addition measured for 5 mins by Fluo-4-AM based calcium mobilization assay
Assay type: functional, cell-based
Conditions: read-out: EC50
metric.name: pEC50
One number for each entry, as −log10 of the molar value.

Known pEC50 results, listed for orientation:
[
  {
    "compound": "Cc1nc2sc(C(=O)NCc3ccnnc3)c(N)c2c(C)c1Cl",
    "readout.value": 6.49
  },
  {
    "compound": "Cc1nc2sc(C(=O)NCc3ccccc3)c(N)c2c(C)c1Cl",
    "readout.value": 6.97
  },
  {
    "compound": "Cc1nc2sc(C(=O)NC3CCCCC3)c(N)c2c(C)c1Cl",
    "readout.value": 6.65
  },
  {
    "compound": "Cc1nc2sc(C(=O)NCc3ccc(Cl)cc3)c(N)c2c(C)c1Cl",
    "readout.value": 6.74
  },
  {
    "compound": "Cc1nc2sc(C(=O)NC3CC3)c(N)c2c(C)c1Cl",
    "readout.value": 7.11
  },
  {
    "compound": "Cc1nc2sc(C(=O)NC3CCOC3)c(N)c2c(C)c1Cl (stereo unspecified)",
    "readout.value": 7.28
  },
  {
    "compound": "Cc1nc2sc(C(=O)NCCc3ccncc3)c(N)c2c(C)c1Cl",
    "readout.value": 6.89
  },
  {
    "compound": "Cc1nc2sc(C(=O)NC(C)c3ccncc3)c(N)c2c(C)c1Cl (stereo unspecified)",
    "readout.value": 6.22
  },
  {
    "compound": "Cc1nc2sc(C(=O)NCc3ncccn3)c(N)c2c(C)c1Cl",
    "readout.value": 6.09
  }
]

Given item COc1ccc(CNC(=O)c2sc3nc(C)c(Cl)c(C)c3c2N)cc1 , the value recorded as its pEC50 is 6.97
